Biological target: UniProt P06401
Sequence (P06401 whole entry): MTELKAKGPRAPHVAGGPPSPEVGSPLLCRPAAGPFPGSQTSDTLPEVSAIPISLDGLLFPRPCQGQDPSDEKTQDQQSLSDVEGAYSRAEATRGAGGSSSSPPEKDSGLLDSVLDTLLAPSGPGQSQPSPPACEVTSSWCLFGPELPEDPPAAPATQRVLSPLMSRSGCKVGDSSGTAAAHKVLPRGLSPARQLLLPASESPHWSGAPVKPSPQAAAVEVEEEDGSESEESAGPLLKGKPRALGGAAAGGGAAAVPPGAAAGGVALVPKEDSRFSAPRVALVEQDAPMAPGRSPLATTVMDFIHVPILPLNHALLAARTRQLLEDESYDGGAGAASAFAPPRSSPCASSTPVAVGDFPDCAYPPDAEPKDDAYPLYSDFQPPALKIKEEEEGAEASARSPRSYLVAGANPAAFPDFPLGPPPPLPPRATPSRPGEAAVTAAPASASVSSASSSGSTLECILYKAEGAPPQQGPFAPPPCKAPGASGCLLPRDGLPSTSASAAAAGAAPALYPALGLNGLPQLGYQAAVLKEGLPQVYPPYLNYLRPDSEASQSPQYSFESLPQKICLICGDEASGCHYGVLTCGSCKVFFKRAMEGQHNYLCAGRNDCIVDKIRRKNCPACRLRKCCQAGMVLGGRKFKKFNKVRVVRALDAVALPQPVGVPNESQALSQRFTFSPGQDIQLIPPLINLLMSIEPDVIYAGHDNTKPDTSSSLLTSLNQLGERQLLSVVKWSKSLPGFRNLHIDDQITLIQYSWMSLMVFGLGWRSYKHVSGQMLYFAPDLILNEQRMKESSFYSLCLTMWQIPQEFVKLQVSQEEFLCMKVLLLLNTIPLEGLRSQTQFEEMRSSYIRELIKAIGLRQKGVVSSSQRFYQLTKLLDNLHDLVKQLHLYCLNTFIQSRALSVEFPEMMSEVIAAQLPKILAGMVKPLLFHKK
Experiment: Co-transfection assay, PR agonist activity (CV-1 cells)
Assay type: cell-based
Parameters: expressed in transfected cells; host or cells: CV-1 cells
Conditions: percent maximal response relative to reference agonist progesterone
For each of the molecules below, state its PR Agonist CV-1 Cells Efficacy (%).

- CC1(C)OC(=S)Nc2ccc(C3=CCCCC3)cc21: 105%

Turning now to a further record.
Data request, read-out PR Agonist CV-1 Cells Efficacy (%), for CC(=O)[C@H]1CC[C@H]2[C@@H]3CCC4=CC(=O)CC[C@]4(C)[C@H]3CC[C@]12C [Prog, progesterone, reference compound]
100%

----------
Molecular target: human AR (Homo sapiens, UniProt P10275)
Sequence (P10275 whole entry): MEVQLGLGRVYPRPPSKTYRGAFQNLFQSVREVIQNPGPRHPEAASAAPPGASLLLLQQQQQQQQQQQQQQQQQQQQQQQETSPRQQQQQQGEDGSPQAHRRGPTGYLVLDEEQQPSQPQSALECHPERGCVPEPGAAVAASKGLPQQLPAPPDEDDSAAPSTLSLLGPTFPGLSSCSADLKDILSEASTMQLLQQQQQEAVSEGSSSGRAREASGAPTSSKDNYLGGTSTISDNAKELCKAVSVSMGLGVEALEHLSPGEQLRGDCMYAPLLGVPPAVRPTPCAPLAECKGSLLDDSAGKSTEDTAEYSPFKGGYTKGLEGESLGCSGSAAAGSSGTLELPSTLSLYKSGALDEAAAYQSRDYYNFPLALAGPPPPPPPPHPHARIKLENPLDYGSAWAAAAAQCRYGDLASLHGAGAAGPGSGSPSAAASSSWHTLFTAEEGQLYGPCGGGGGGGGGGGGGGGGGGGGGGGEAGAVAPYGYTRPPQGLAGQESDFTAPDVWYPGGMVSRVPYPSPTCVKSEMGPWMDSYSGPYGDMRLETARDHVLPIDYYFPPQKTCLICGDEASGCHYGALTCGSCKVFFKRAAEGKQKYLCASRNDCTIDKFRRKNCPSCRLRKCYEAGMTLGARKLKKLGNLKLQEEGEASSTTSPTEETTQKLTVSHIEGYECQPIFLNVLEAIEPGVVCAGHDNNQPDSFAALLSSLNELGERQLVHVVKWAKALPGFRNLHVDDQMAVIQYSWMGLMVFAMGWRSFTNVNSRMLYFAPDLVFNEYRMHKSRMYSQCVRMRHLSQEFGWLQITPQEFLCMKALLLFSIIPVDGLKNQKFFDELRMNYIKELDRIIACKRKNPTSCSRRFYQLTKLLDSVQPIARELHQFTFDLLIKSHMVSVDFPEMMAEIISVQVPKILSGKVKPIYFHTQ
Test: Co-transfection assay, AR antagonist activity (CV-1 cells, in presence of DHT)
Assay type: cell-based
Conditions: CV-1 cells; percent maximal inhibition, DHT at its EC50
I'd appreciate it if you could supply AR Antagonist CV-1 Cells Efficacy (%) values for the items below.
Answers are plain numbers, in %.

The following compounds have reported results that may help.
• O=c1cc(C(F)(F)F)c2cc(-c3cccc(F)c3F)ccc2[nH]1 = 87
• Cn1c(=O)cc(C(F)(F)F)c2cc(N(CC(F)(F)F)CC(F)(F)F)ccc21 = 43
• O=c1[nH]c2cc(NC3CCCC3)ccc2c(C(F)(F)F)c1F = 76
• Nc1cc2[nH]c(=O)cc(C(F)(F)F)c2cc1C1CCCCC1 = 92
• O=C1C=C(c2ccc3[nH]c(=O)cc(C(F)(F)F)c3c2)CCC1 = 70
• O=c1cc(C(F)(F)F)c2cc(C(O)(c3ccccc3)c3ccccc3)ccc2[nH]1 = 70
• CCCC1CCC(CCC)N1c1ccc2[nH]c(=O)cc(C(F)(F)F)c2c1 (racemic) = 43
• O=c1cc(C(F)(F)F)c2cc(N3CCCC3Cc3ccccc3)ccc2[nH]1 (racemic) = 85
• CC(C)Nc1ccc2c(C(F)(F)F)c(F)c(=O)[nH]c2c1 = 76
• O=c1cc(C(F)(F)F)c2cc(-c3cccc(F)c3)ccc2[nH]1 = 92

Dear reader, for each entry below, please note its AR Antagonist CV-1 Cells Efficacy (%).
1. O=c1cc(C(F)(F)F)c2cc(N3CCCCC3CO)ccc2[nH]1 (racemic)
2. CCCCC1(O)C=C(c2ccc3c(c2)C(C)(C)OC(=O)N3)CCC1 (racemic)
3. O=C(Nc1ccc2c(C(F)(F)F)cc(=O)[nH]c2c1)C(F)(F)F
4. O=c1cc(C(F)(F)F)c2cc(N3CCc4ccccc43)ccc2[nH]1
5. O=c1cc(C(F)(F)F)c2cc(C3=CCCC3)ccc2[nH]1
6. O=c1cc(C(F)(F)F)c2cc(N3CCCCC3)ccc2[nH]1
7. CCCOc1c(NCC(F)(F)F)ccc2[nH]c(=O)cc(C(F)(F)F)c12
8. O=c1cc(C(F)(F)F)c2cc(N3CCCc4ccccc43)ccc2[nH]1

[42, 90, 59, 89, 75, 38, 85, 81]

For the compound shown here, O=c1cc(C(F)(F)F)c2cc(C3=CCCCC3)ccc2[nH]1 , give the reported AR Antagonist CV-1 Cells Efficacy (%).
67

----------
For each of the molecules below, state its Ki.
Biological target: human AR (Homo sapiens, UniProt P10275)
Assay: AR whole cell competitive binding assay (COS-1 cells, 3H-DHT)
Conditions: 1 nM 3H-DHT, Cheng-Prusoff
One number for each entry, in nM.

Illustrative cases are given below, each with its answer.
- COC[C@H]1CCCN1c1ccc2[nH]c(=O)cc(C(F)(F)F)c2c1 [Compound 423]: 22
- CCCN(c1ccc2[nH]c(=O)cc(C(F)(F)F)c2c1)C(C)CC (racemic) [Compound 255]: 67

Here's the next entry for you.
Can you share its Ki? I mean this molecule: O=c1cc(C(F)(F)F)c2cc(C3=CCCCC3)ccc2[nH]1 [Compound 630]
109
